- protocolSummary: Inhibition concentration by inhibition of carbonic anhydrase from kidney in Rat
endpointName: IC50
Returns: string containing the numeric result and its unit.

Returns the measured IC50 for the input compound. Input: CC(=O)Nc1nnc(S(N)(=O)=O)s1 [ACETAZOLAMIDE]
650 nM

====

- protocolSummary: Inhibition concentration by inhibition of carbonic anhydrase from myelin in Rat
endpointName: pIC50
In plain terms, pIC50 is the concentration in mol/L turned into minus its base-10 logarithm.

Returns the measured pIC50 for the input compound. Input: CC(=O)Nc1nnc(S(N)(=O)=O)s1 [ACETAZOLAMIDE]
7.62

====

- protocolSummary: Partition coefficient (logP)
- Type: physicochemical
- experimentalConditions: octanol/water
endpointName: logP
Output: the number by itself.

compound | numericValue
CC1(C)O[C@@H]2[C@@H](CO[C@@]3(COS(N)(=O)=O)OC(C)(C)O[C@@H]23)O1 [TOPIRAMATE] | 3.26

Continue with the compound presented below.
Returns the measured logP for the input compound. Input: `CC1(C)O[C@H]2[C@@H]3OS(=O)(=O)O[C@@H]3CO[C@@]2(COS(N)(=O)=O)O1`
2.44

====

- protocolSummary: Inhibition concentration by inhibition of carbonic anhydrase from synaptosomes in Rat
endpointName: IC50 (nM)
Just the number please, in nM, no unit attached.

Returns the measured IC50 for the input molecule. Input: CC(=O)Nc1nnc(S(N)(=O)=O)s1 [ACETAZOLAMIDE]
7

====

- protocolSummary: Inhibition concentration by inhibition of carbonic anhydrase from brain in Rat. 95% confidence limits are given in parentheses.
endpointName: IC50
Returns: string containing the numeric result and its unit.

molecule | result
CC1(C)O[C@@H]2[C@@H](CO[C@@]3(COS(N)(=O)=O)OC(C)(C)O[C@@H]23)O1 [TOPIRAMATE] | 4.55 µM

Returns the measured IC50 for the input molecule. Input: `CC1(C)O[C@H]2[C@@H]3OS(=O)(=O)O[C@@H]3CO[C@@]2(COS(N)(=O)=O)O1`
0.021 µM

====

- protocolSummary: Partition coefficient (logP)
- Assay type: physicochemical
- experimentalConditions: octanol/water
endpointName: logP
Output: the number by itself.

Please review the following examples before continuing.
compound | logP
CC1(C)O[C@@H]2[C@@H](CO[C@@]3(COS(N)(=O)=O)OC(C)(C)O[C@@H]23)O1 [TOPIRAMATE] | 0.53
CC1(C)O[C@H]2[C@@H]3OS(=O)(=O)O[C@@H]3CO[C@@]2(COS(N)(=O)=O)O1 | 0.42

Continue with the compound presented below.
Returns the measured logP for the input compound. Input: `CCC1(CC)O[C@@H]2[C@@H](CO[C@@]3(COS(N)(=O)=O)OC(C)(C)O[C@@H]23)O1`
1.52

====

- Test system: Mus musculus
- protocolSummary: Activity against maximal electroshock seizures in mice, 4 hr following oral administration of 300 mg/kg of compound
- Format: functional
endpointName: Block (%)
Just the number please, in %, no unit attached.

Please review the following examples before continuing.
compound | unitTag | Block
Cc1ccc(S(=O)(=O)/N=S2\O[C@@H]3[C@@H](CO[C@@]4(COS(N)(=O)=O)OC(C)(C)O[C@@H]34)O2)cc1 (some centres undefined) | % | 75
CC1(C)O[C@H]2C=CCO[C@@]2(COS(N)(=O)=O)O1 | % | 0
Cc1ccc(S(=O)(=O)N=S2(=O)O[C@@H]3[C@@H](CO[C@@]4(COS(N)(=O)=O)OC(C)(C)O[C@@H]34)O2)cc1 (some centres undefined) | % | 80

Continue with the compound presented below.
# returns recorded Block (system: Mus musculus) for `CCO[C@@H]1[C@H](OCC)CO[C@@]2(COS(N)(=O)=O)OC(C)(C)O[C@@H]12`
40

From: ChEMBL document CHEMBL1131331
